These measurements were taken from the supplement of paper PMC8728848.

- system: Gal6S(b1-4)Glc6S
- experiment: glycan array binding signal (z-score within array); higher = stronger binding
- assaySetup: glycan notation: IUPAC condensed, linker removed
The sample as a whole holds a higher share of the strongest signals than the screen did.
recordedMetric: glycan array binding signal (z-score)

INSERT INTO measurements (binder, reportedmeasurement) VALUES
  ('Pbx2CASH domain (Cryptococcus neoformans) (protein) GIPGPNRLYRLSGPIIFTAADQEIATYGYPTGSERAVLRVEGRNTATAIQGDCRRCARVSVKNLVVDGNRKKLGRMRDFQLATGLVVLGGNEGQSIQNSWIKNPRGFTAIHIREGDKLQCSGARVEKNEIGPVGEEYDPEKDGDDPEMSPLGRPLADGVSIACRDSFIRDNTFRDNTDAAIVVYCSPGTLIHA', 3.18),
  ('Epa22 (Candida glabrata) (protein) MGSSHHHHHHSSGLVPRGSHMKRALSSQNPFGYPIGCSPQSTNVIPGLTMELYSYPIVSGTPPNCYDASYVDPEYPRTGYLKRKMIGKSTGVTGSLNYKFSVEKACMVKYGNLPAGYNYNEPLTVSNFTMLLYGYFKPQTSGIHTFFVNADDLLYINFGAGNAFDCCKREDSKFKLGEYVAYDIWHVDSSKNKVSLNLEKDVYYPIRMFFNNIGKDSSLDLSFSVNGAVEHITDFSGYLYSVPDQPDACPAPIGYDTTCK', 4.93),
  ('Epa3to1 (Candida glabrata) (protein) MGSSHHHHHHSSGLVPRGSHMKRELSSQNPFGYPIGCSPQDVAIIPGLTMELYSYPIVSGTPPNCYDASYVDPEYPRTGYLKRKMVGKSTGVTGNLNYKYSVEKACMVKYGNLPAGYNYNEPLTVSNFTMILYGYFKAQTTGLHTFFVNADDLLYINFGAGNAFDCCKREDSKTKLGEYVAYDIWHVDSSKNKVSLFLEKDLYYPIRMFFNNREYDSSLDLSFSVNGATDQISDFSGYLYSVPDQPDTCPAHIGYDTTCR', 6.81);
